Test system: Escherichia coli
Test: Antibacterial activity against Escherichia coli ATCC 25922 (CO-ADD:GN_001); MIC in CAMBH media using NBS plates, by Resazurin F(560/590)
Type: functional
Experimental Context: Concentration 20 uM, ASSAY_TEST Inhibition of Bacterial Growth, detection method Resazurin, Fluorescence (ex560/em590), MEDIA CAMHB, plate type 384well, CORNING #3640, time 18 hr
Measured Inhibition of individual entries
Metric Name: Inhibition (%)

INSERT INTO assay_data (compound, uom, recorded_measurement) VALUES
  ('COC(=O)C1C(O)CCC2CN3CCc4c([nH]c5ccccc45)C3CC21 (stereo unspecified)', '%', 5.27),
  ('CC(=O)C1CCCC(=O)/C=C/C(=O)O1 (stereo unspecified)', '%', -0.06),
  ('Cc1cc2nc3[nH]c(=O)[nH]c(=O)c3nc2cc1C', '%', 3.58),
  ('O=C(O)CCCCCCC[C@@H](O)[C@@H](O)CCCCCCO', '%', 9.65),
  ('O=C1c2cc(O)c(O)cc2O[C@H](c2ccc(O)c(O)c2)[C@H]1O', '%', 7.15),
  ('CC1CC(O)C2C3(C)CCCC2(COC3=O)C12CCC1(CCOC1=O)O2 (stereo unspecified)', '%', 2.41);

* * *

Measured Inhibition of individual entries
System: Klebsiella pneumoniae
Experimental Context: Concentration 20 uM; ASSAY_TEST Inhibition of Bacterial Growth; detection method Absorption (OD600); MEDIA CAMHB; plate type 384well; NBS; CORNING #3640; time 18 hr
Description: Antibacterial activity against Klebsiella pneumoniae MDR ATCC 70063 (CO-ADD:GN_003); MIC in CAMBH media using NBS plates, by OD(600)
Measured potencies and affinities stand elsewhere.
Metric Name: Inhibition (%)

INSERT INTO results (compound, recorded_measurement) VALUES
  ('COC1/C=C\C=C(/C)C(=O)NC2=CC(=O)C(N)=C(CC(C)CC(OC)C(O)C(C)/C=C(\C)C1OC(N)=O)C2=O (stereo not drawn)', 4.53),
  ('C=C1C(=O)OC2CC(C)C3(O)CCC(=O)C3(C)CC12 (stereo not drawn)', 2.56),
  ('CC(C)CC1NC(=O)C(C(C)C)NC(=O)CC(C)COC(=O)C(CC(C)C)N(C)C(=O)C(C(C)C)NC(=O)C(C(C)C)OC1=O (stereo not drawn)', 6.52);

* * *

Measured Inhibition of individual entries
Tested on: Cryptococcus neoformans
Experimental Context: Concentration 20 uM; ASSAY_TEST Inhibition of Fungal Growth; detection method Resazurin; Absorption (OD600-OD570); plate type 384well; NBS; CORNING #3640
Description: Antifungal activity against Cryptococcus neoformans H99 ATCC 208821 (CO-ADD:FG_002); MIC in YNB media using NBS plates, by Resazurin OD(600-570)
Potency and affinity values are given separately.
Metric Name: Inhibition (%)

INSERT INTO measurements (compound, experimental_system, recorded_measurement) VALUES
  ('COc1c2c(cc3c1[C@@H]1Oc4c(ccc(O)c4CC=C(C)C)[C@@H]1CO3)OC(C)(C)C=C2', 'Cryptococcus neoformans', -11.6),
  ('COc1cc([C@@H]2c3cc4c(cc3[C@@H](OC3OC5CO[C@@H](c6cccs6)OC5C(O)C3O)[C@H]3COC(=O)[C@H]23)OCO4)cc(OC)c1O (stereo partly specified)', 'Cryptococcus neoformans', -9.1),
  ('COC1/C=C\C=C(/C)C(=O)NC2=CC(=O)C(N)=C(CC(C)CC(OC)C(O)C(C)/C=C(\C)C1OC(N)=O)C2=O (stereo unspecified)', 'Cryptococcus neoformans', -11.91),
  ('COc1cc(C)c2c(c1C=O)Oc1c(c(C)c(O)c3c1C(O)OC3=O)OC2=O (stereo unspecified)', 'Cryptococcus neoformans', -12.08),
  ('COC(=O)C1C2CC3c4[nH]c5cc(OC)ccc5c4CCN3CC2CC(OC(=O)CCc2cc(OC)c(OC)c(OC)c2)C1OC (stereo unspecified)', 'Cryptococcus neoformans', -8.83),
  ('CC(=O)O.COc1ccc2c(=O)oc3c(OC)cc(CCN(C)C)c4c(=O)oc1c2c34', 'Cryptococcus neoformans', -6.47),
  ('CC(C)CC1NC(=O)C(C(C)C)NC(=O)CC(C)COC(=O)C(CC(C)C)N(C)C(=O)C(C(C)C)NC(=O)C(C(C)C)OC1=O (stereo unspecified)', 'Cryptococcus neoformans', -9.65),
  ('CCCCCc1cc(O)cc2c1Oc1cc(O)cc(C(=O)CCCC)c1C(=O)O2', 'Cryptococcus neoformans', -14.32),
  ('CC1CC(O)C2C3(C)CCCC2(COC3=O)C12CCC1(CCOC1=O)O2 (stereo unspecified)', 'Cryptococcus neoformans', -8.53),
  ('C=C1C(=O)OC2CC3(C)CCCC(C)C3=CC12 (stereo unspecified)', 'Cryptococcus neoformans', -3.97),
  ('CC(C)c1ccc2c(c1)CC[C@H]1[C@](C)(C(=O)O)CCC[C@]21C [DEHYDROABIETIC ACID]', 'Cryptococcus neoformans', -14.06);

The measured values listed here are drawn from ChEMBL document CHEMBL4296183.
